meta.source: the CheMixHub drug solubility set

Experiment: xn = mol fraction of the nth substance listed, in the solute-free solvent
Conditions: 288.15 K; x2 = 0.5
solubility (g/100 g solution) vs 1: at or above is T, below is F.

query: Decide: solubility (g/100 g solution) of CC(=O)OC(c1ccccc1)C(Cl)(Cl)Cl (centres undefined) + CC(=O)O + O >= 1?
result: F

query: Decide: solubility (g/100 g solution) of COC1=CC(=O)CC(C)C12Oc1c(Cl)c(OC)cc(OC)c1C2=O (centres undefined) + CC(C)=O + CC(C)O >= 1?
result: T

query: Decide: solubility (g/100 g solution) of O=C1CCc2ccc(OCCCCN3CCN(c4cccc(Cl)c4Cl)CC3)cc2N1 + CCC(C)=O + CC(C)=O >= 1?
result: T

query: Decide: solubility (g/100 g solution) of O=C1CCc2ccc(OCCCCN3CCN(c4cccc(Cl)c4Cl)CC3)cc2N1 + CCC(C)=O + CCCO >= 1?
result: T

query: Decide: solubility (g/100 g solution) of COC1=CC(=O)CC(C)C12Oc1c(Cl)c(OC)cc(OC)c1C2=O (centres undefined) + CC(=O)CC(C)C + CC(C)O >= 1?
result: F

query: Decide: solubility (g/100 g solution) of COC1=CC(=O)CC(C)C12Oc1c(Cl)c(OC)cc(OC)c1C2=O (centres undefined) + CCC(C)=O + CC(C)O >= 1?
result: T

query: Decide: solubility (g/100 g solution) of CCCCOc1ccc(C(=O)CCN2CCCCC2)cc1.Cl + CO + C1CCOC1 >= 1?
result: T

query: Decide: solubility (g/100 g solution) of CCCCOc1ccc(C(=O)CCN2CCCCC2)cc1.Cl + CCO + CCCCCC >= 1?
result: T

query: Decide: solubility (g/100 g solution) of CCCCOc1ccc(C(=O)CCN2CCCCC2)cc1.Cl + CCO + O >= 1?
result: T

====

Experiment: xn = mol fraction of the nth substance listed, in the solute-free solvent
Conditions: 323.15 K; x2 = 0.7
resultType: solubility (g/100 g solution)
Give the figure only, with no unit attached.

query: Supply solubility (g/100 g solution) value. Item: O=C(O)c1ccc(C(=O)O)o1 + C1COCCO1 + O
result: 3.94

query: Supply solubility (g/100 g solution) value. Item: O=C(O)c1ccc(C(=O)O)o1 + C1CCOC1 + O
result: 8.14

query: Supply solubility (g/100 g solution) value. Item: CCCCOc1ccc(C(=O)CCN2CCCCC2)cc1.Cl + CCO + O
result: 61

query: Supply solubility (g/100 g solution) value. Item: O=C(O)c1ccc(C(=O)O)o1 + O + COCCOCCOC
result: 7.28

query: Supply solubility (g/100 g solution) value. Item: CC(=O)OC(c1ccccc1)C(Cl)(Cl)Cl (stereo not given) + CC(=O)O + O
result: 16.9

query: Supply solubility (g/100 g solution) value. Item: COC1=CC(=O)CC(C)C12Oc1c(Cl)c(OC)cc(OC)c1C2=O (stereo not given) + CC(=O)CC(C)C + CC(C)O
result: 1.77

query: Supply solubility (g/100 g solution) value. Item: O=C(O)c1ccc(C(=O)O)o1 + O + COCCOC
result: 6.64

query: Supply solubility (g/100 g solution) value. Item: CCCCOc1ccc(C(=O)CCN2CCCCC2)cc1.Cl + CCO + CCCCCC
result: 44.1

query: Supply solubility (g/100 g solution) value. Item: COC1=CC(=O)CC(C)C12Oc1c(Cl)c(OC)cc(OC)c1C2=O (stereo not given) + CCC(C)=O + CC(C)O
result: 3.79

query: Supply solubility (g/100 g solution) value. Item: CC(=O)OC(c1ccccc1)C(Cl)(Cl)Cl (stereo not given) + CCO + O
result: 13.2

query: Supply solubility (g/100 g solution) value. Item: CC(=O)OC(c1ccccc1)C(Cl)(Cl)Cl (stereo not given) + CC(C)O + O
result: 16.8

query: Supply solubility (g/100 g solution) value. Item: COC1=CC(=O)CC(C)C12Oc1c(Cl)c(OC)cc(OC)c1C2=O (stereo not given) + CC(C)=O + CC(C)O
result: 4.58

query: Supply solubility (g/100 g solution) value. Item: CCCCOc1ccc(C(=O)CCN2CCCCC2)cc1.Cl + CCO + CCOC(C)=O
result: 46.5

query: Supply solubility (g/100 g solution) value. Item: O=C(O)C1CSCN1 (stereo not given) + O + CC#N
result: 1.52

query: Supply solubility (g/100 g solution) value. Item: CCCCOc1ccc(C(=O)CCN2CCCCC2)cc1.Cl + CO + C1CCOC1
result: 59.9

====

Task for the reader: assign each of the following compounds its reported solubility (g/100 g solution).
Test: xn = mol fraction of the nth substance listed, in the solute-free solvent
Details: 308.15 K; x2 = 0.1
Give the figure only, with no unit attached.

query: Supply solubility (g/100 g solution) value. Item: O=C(O)c1ccc(C(=O)O)o1 + C1CCOC1 + O
result: 1.9

query: Supply solubility (g/100 g solution) value. Item: CCCCOc1ccc(C(=O)CCN2CCCCC2)cc1.Cl + CCO + O
result: 55.2

query: Supply solubility (g/100 g solution) value. Item: O=C(O)c1ccc(C(=O)O)o1 + C1COCCO1 + O
result: 1.98

query: Supply solubility (g/100 g solution) value. Item: COC1=CC(=O)CC(C)C12Oc1c(Cl)c(OC)cc(OC)c1C2=O (stereo not given) + CC(C)=O + CC(C)O
result: 0.463

query: Supply solubility (g/100 g solution) value. Item: O=C1CCc2ccc(OCCCCN3CCN(c4cccc(Cl)c4Cl)CC3)cc2N1 + CCC(C)=O + CCOC(C)=O
result: 1.88

====

Assay: xn = mol fraction of the nth substance listed, in the solute-free solvent
Settings: 303.15 K; x2 = 0.6
Task for the reader: assign each of the following compounds its reported solubility (g/100 g solution).
Give the figure only, with no unit attached.

query: Supply solubility (g/100 g solution) value. Item: COC1=CC(=O)CC(C)C12Oc1c(Cl)c(OC)cc(OC)c1C2=O (stereo not given) + CC(C)=O + CC(C)O
result: 2.34

query: Supply solubility (g/100 g solution) value. Item: O=C(O)C1CSCN1 (stereo not given) + O + CC#N
result: 0.533

query: Supply solubility (g/100 g solution) value. Item: CCCCOc1ccc(C(=O)CCN2CCCCC2)cc1.Cl + CCO + CCOC(C)=O
result: 29.3

query: Supply solubility (g/100 g solution) value. Item: O=C1CCc2ccc(OCCCCN3CCN(c4cccc(Cl)c4Cl)CC3)cc2N1 + CCC(C)=O + CCOC(C)=O
result: 2.39

query: Supply solubility (g/100 g solution) value. Item: O=C1CCc2ccc(OCCCCN3CCN(c4cccc(Cl)c4Cl)CC3)cc2N1 + CCC(C)=O + CCCO
result: 4.3

====

Experiment: xn = mol fraction of the nth substance listed, in the solute-free solvent
Conditions: 313.15 K; x2 = 0.3
resultType: solubility (g/100 g solution)
Give the figure only, with no unit attached.

query: Supply solubility (g/100 g solution) value. Item: O=C1CCc2ccc(OCCCCN3CCN(c4cccc(Cl)c4Cl)CC3)cc2N1 + CCC(C)=O + CC(C)=O
result: 3.74

query: Supply solubility (g/100 g solution) value. Item: CC(=O)OC(c1ccccc1)C(Cl)(Cl)Cl (stereo unspecified) + CC(C)O + O
result: 2.84

query: Supply solubility (g/100 g solution) value. Item: O=C(O)c1ccc(C(=O)O)o1 + C1COCCO1 + O
result: 4.34

query: Supply solubility (g/100 g solution) value. Item: CCCCOc1ccc(C(=O)CCN2CCCCC2)cc1.Cl + CCO + CCCCCC
result: 16.6

query: Supply solubility (g/100 g solution) value. Item: O=C(O)c1ccc(C(=O)O)o1 + O + COCCOCCOC
result: 3.09

query: Supply solubility (g/100 g solution) value. Item: O=C1CCc2ccc(OCCCCN3CCN(c4cccc(Cl)c4Cl)CC3)cc2N1 + CCC(C)=O + CCOC(C)=O
result: 2.68

====

Task for the reader: assign each of the following compounds its reported solubility (g/100 g solution).
Assay: xn = mol fraction of the nth substance listed, in the solute-free solvent
Details: 278.15 K; x2 = 0.7
Give the figure only, with no unit attached.

query: Supply solubility (g/100 g solution) value. Item: O=C1CCc2ccc(OCCCCN3CCN(c4cccc(Cl)c4Cl)CC3)cc2N1 + CCC(C)=O + CC(C)=O
result: 1.12

query: Supply solubility (g/100 g solution) value. Item: CCCCOc1ccc(C(=O)CCN2CCCCC2)cc1.Cl + CCO + CCCCCC
result: 20.3

query: Supply solubility (g/100 g solution) value. Item: CCCCOc1ccc(C(=O)CCN2CCCCC2)cc1.Cl + CCO + CCOC(C)=O
result: 20.8

query: Supply solubility (g/100 g solution) value. Item: O=C1CCc2ccc(OCCCCN3CCN(c4cccc(Cl)c4Cl)CC3)cc2N1 + CCC(C)=O + CCCO
result: 1.98

query: Supply solubility (g/100 g solution) value. Item: CCCCOc1ccc(C(=O)CCN2CCCCC2)cc1.Cl + CO + C1CCOC1
result: 30.6

query: Supply solubility (g/100 g solution) value. Item: CCCCOc1ccc(C(=O)CCN2CCCCC2)cc1.Cl + CCO + O
result: 32.2

query: Supply solubility (g/100 g solution) value. Item: O=C1CCc2ccc(OCCCCN3CCN(c4cccc(Cl)c4Cl)CC3)cc2N1 + CCC(C)=O + CCOC(C)=O
result: 0.879
